Just for reference, PubChem BioAssay is where these values come from.

- assayedSystem: Epidermal growth factor receptor (Homo sapiens) (UniProt P00533)
- Sequence (P00533 whole entry, looked up): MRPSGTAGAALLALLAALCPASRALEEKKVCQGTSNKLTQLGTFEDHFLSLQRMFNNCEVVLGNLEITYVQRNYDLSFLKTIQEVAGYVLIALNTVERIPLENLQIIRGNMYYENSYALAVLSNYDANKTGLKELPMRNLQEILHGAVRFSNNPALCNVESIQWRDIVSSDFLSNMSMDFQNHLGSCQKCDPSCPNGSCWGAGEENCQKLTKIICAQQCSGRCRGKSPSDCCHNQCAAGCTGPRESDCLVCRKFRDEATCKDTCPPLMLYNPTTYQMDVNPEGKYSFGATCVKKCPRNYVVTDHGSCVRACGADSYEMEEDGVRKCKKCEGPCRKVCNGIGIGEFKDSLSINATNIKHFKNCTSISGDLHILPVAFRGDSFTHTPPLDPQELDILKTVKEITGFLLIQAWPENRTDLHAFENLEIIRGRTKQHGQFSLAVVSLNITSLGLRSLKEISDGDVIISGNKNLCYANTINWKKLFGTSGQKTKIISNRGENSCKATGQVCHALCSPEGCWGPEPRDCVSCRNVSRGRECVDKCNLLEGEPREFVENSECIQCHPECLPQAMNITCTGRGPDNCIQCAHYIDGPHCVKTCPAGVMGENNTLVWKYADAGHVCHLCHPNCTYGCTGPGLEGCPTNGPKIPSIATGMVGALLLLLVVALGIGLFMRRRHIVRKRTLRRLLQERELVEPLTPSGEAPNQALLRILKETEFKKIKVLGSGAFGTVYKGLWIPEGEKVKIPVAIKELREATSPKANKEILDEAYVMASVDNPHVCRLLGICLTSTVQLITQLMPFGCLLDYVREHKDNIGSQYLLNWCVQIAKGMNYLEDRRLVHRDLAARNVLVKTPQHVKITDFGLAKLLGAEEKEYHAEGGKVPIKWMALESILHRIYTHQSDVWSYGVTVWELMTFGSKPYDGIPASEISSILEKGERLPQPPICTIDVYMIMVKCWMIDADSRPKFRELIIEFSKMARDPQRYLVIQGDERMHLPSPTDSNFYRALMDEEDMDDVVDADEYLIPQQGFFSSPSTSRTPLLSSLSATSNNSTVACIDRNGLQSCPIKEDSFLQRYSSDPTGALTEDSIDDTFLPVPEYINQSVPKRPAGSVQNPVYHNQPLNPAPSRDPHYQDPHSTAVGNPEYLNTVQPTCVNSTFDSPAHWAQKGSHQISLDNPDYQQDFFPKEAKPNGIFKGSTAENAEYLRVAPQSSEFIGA
- assayDetails: compounds binding epidermal growth factor receptor – biochemical, small-molecule microarray, 635 nm fluorescence, primary screen (AID 1104);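 also: score merges 667 nm emission intensity with spot signal to noise over triplicate slides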
- statedConditions: EGFR binding, higher = more signal
parameter: composite z-score

compound	parameter	observedResult
CCCC[C@@H]1C[C@H]1[C@@H](NC(=O)c1ccccc1)c1ccc(-c2ccccc2)cc1	composite z-score	0.0518
CN(C)CCCCCCNC(=O)[C@@H]1C[C@@H]2C(=O)N[C@@H](Cc3ccccc3)C(=O)N2[C@@H]1c1cccc(OCCO)c1	composite z-score	0.464
CCOC(=O)C1=CC[C@@H](c2ccccc2)N(S(=O)(=O)c2ccc(C)cc2)[C@H]1c1ccc(C#N)cc1	composite z-score	-0.18
O=C(CS)NCCCCCNC(=O)[C@H]1C[C@H]2C(=O)N[C@@H](Cc3ccccc3)C(=O)N2[C@H]1c1cccc(OCCO)c1	composite z-score	0.98
Cc1cc(C)c(C(O)C2C=CC3C(=O)NC(=O)C3N2Nc2ccccn2)c(C)c1 (stereo not given)	composite z-score	-0.373

# get_value(readout='composite z-score', item= O=C(NCC(O)CO)[C@@]1(Cc2ccccc2)N=C(c2ccc(OCCCO)cc2)O[C@H]1c1ccccc1 (stereo not given in full) ) -1.2

And the next one, O=C1O[C@@H](c2ccccc2)[C@@H](c2ccccc2)N2[C@@H](c3ccc(O)cc3)[C@]3(C(=O)Nc4ccccc43)[C@@H](C(=O)NC[C@H](O)c3ccccc3)[C@H]12 ? 0.249

Same question, O=C1O[C@@H](c2ccccc2)[C@@H](c2ccccc2)N2[C@@H](c3ccccc3OCCO)[C@]3(C(=O)Nc4ccc(C#CC5(O)CCCCCC5)cc43)[C@@H](C(=O)NC[C@H](O)c3ccccc3)[C@H]12 this time 0.265

Now give it for COCCCNC(=O)[C@@]1(Cc2ccccc2I)c2ccccc2C(=O)N(Cc2ccccc2)[C@H]1c1ccc(CO)cc1 too. -2.16

Same for O=C(NCc1ccccc1)[C@@H]1c2ccccc2C(=O)N(Cc2cc(F)cc(C(F)(F)F)c2)[C@H]1c1ccc(CO)cc1 -0.0881

Next up: C=C(C(=O)CC[C@@H](OC(C)=O)c1ccc(OCCO)cc1)C(C)C -0.544

Now consider C=CC[C@@]1(C(=O)NCCN2CCOCC2)N=C(c2ccc(OCCCO)cc2)O[C@@H]1c1ccccc1CN=[N+]=[N-] . -0.357

Repeat for the following compound: CCOC(=O)C1=CC[C@@H](c2cccc(Cl)c2)N(S(=O)(=O)c2ccc(C)cc2)[C@H]1c1ccc(C#N)cc1 0.36

Record: O=C1O[C@@H](c2ccccc2)[C@@H](c2ccccc2)N2[C@@H](c3ccc(O)cc3)[C@]3(C(=O)Nc4ccc(C#CCCO)cc43)[C@@H](C(=O)O)[C@H]12 0.363

Do the same for COc1ccc([Si](C)(C)[C@@H]2[C@@H](CCO)O[C@]3(C(=O)N(Cc4ccccc4)c4ccc(N(C=O)c5ccccc5)cc43)[C@H]2C)cc1 please 0.012

Continue with COC(=O)[C@@]1(Cc2ccc(OC)cc2)[C@H]2c3cc(C(=O)N4CCCC4)n(C[C@H](O)CO)c3C[C@H]2CN1C(=O)c1ccccc1 -0.352

Now the compound C=C(/C(=C/C[C@@H](OC(C)=O)c1ccc(CO)o1)c1cnc2ccccc2c1)C(C)C 0.792

Another compound to check: COc1cc(NN2C(C(O)c3ccccc3)C=CC3C(=O)N(c4ccccc4)C(=O)C32)cc(OC)c1OC (stereo not given) 0.257

// repeat for CCCC[C@H]1C[C@@H]1[C@@H]1N(P(=O)(c2ccccc2)c2ccccc2)[C@](CO)(c2ccccc2)CC12CC2 and report -0.395

Same question, CCCNC(=O)[C@@]1(C)c2ccccc2C(=O)N(Cc2ccc(OC(F)(F)F)cc2)[C@H]1c1ccc(CO)cc1 this time -1.02

Another compound: C=C(CCCC)C(=O)CC[C@H](OC(=O)c1ccccc1-c1ccccc1C(=O)O)c1ccc(CO)o1 0.264

Also, CC[C@@H]1C=C(C(=O)O)[C@H](c2ccc(C(C)C)cc2)N1S(=O)(=O)c1ccc(C)cc1 please. 0.001

What do you get for CC(C)C(O)C1C=CC2C(=O)N(C)C(=O)C2N1N1CCCCC1 (stereo not given) ? 0.403

---

# z-score per entry
- assayDetails: growth of efflux-deficient E. coli DRC39 – strain DRC39, OD650, 24 h, E. coli filamentation inducers, primary screen (AID 1178);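 also: growth measured as culture turbidity by optical density at 650 nm; test concentration not given here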
- statedConditions: E. coli DRC39 acrAB, higher = more signal, called active from +8 up or from −8 down
Write the value as a bare number.

Example compounds with recorded z-score:
lineNotation	z-score
COc1ccc([Si](C)(C)[C@H]2[C@H](CCO)O[C@@]3(C(=O)N(Cc4cccc(N5C(=O)c6cccc7cccc5c67)c4)c4ccccc43)[C@@H]2C)cc1	0.0827
COCCOC(=O)N1C(=O)[C@@]2(c3cc(C#Cc4ccc(OC)cc4)ccc31)[C@H](C(N)=O)[C@H]1C(=O)O[C@H](c3ccccc3)[C@H](c3ccccc3)N1[C@@H]2c1ccc(O)cc1	-0.102

Read the next record carefully.
Any idea what z-score was measured for O=C1O[C@@H](c2ccccc2)[C@@H](c2ccccc2)N2[C@@H](c3ccc(O)cc3)[C@]3(C(=O)Nc4ccccc43)[C@@H](C(=O)N3CCCCCCC3)[C@H]12 ? 0.36

---

- assayedSystem: Neurogenic locus notch homolog protein 2 (Homo sapiens)
- assayDetails: small molecules binding Notch2 protein – biochemical, small-molecule microarray, 635 nm fluorescence, stem cell growth factors, primary screen (AID 1073)
- statedConditions: higher = more signal
A collection of molecules and their measured composite z-score
Respond with the number and no other words.

Reference set (3 entries):
molecule	composite z-score
COC(=O)[C@@]1(Cc2ccccc2)[C@H]2c3cc(C(=O)N(C)C)n(Cc4cc(F)c(F)c(F)c4)c3C[C@H]2CN1C(=O)c1ccccc1	1.68
C[n+]1ccc2ccc(O)cc2c1	0.12
Cc1ccccc1/C=C/C=O	-1.09

Suppose we examine the molecule O=C1O[C@H](c2ccccc2)[C@H](c2ccccc2)N2[C@H]1[C@@H](C(=O)NC[C@H](O)c1ccccc1)[C@]1(C(=O)Nc3ccc(C#CC4(O)CCCCCC4)cc31)[C@H]2c1ccccc1OCCO ; what composite z-score value has been reported? 0.967

Same again, this time with Cn1c2c(c3ccccc31)C(=O)C1NC2C=CC1(C)C(=O)OCc1ccccc1 (stereo not drawn) -1.15

Next record, please: C=CCC(OC(C)=O)[C@@H]1[C@@H](N(Cc2ccc(-c3cccc(C(F)(F)F)c3)o2)C(=O)Cc2ccc(OC)cc2)c2cc(OCCCO)ccc2N1C(=O)Cc1ccc(OC)cc1 (stereo partly drawn) -0.17

Ok, now C[N+](C)(C)CCCCNC(=O)[C@H]1C[C@H]2C(=O)N3CCC[C@H]3C(=O)N2[C@H]1c1ccc(O)cc1 0.534

// repeat for O=C(NCc1ccccc1)[C@@H]1c2ccccc2C(=O)N(Cc2cc(F)cc(C(F)(F)F)c2)[C@H]1c1ccc(CO)cc1 and report 0.558

---

- assayDetails: change in splice reporter luminescence, either direction, cell-based, HEK293, spliceosome inhibition project, primary screen (AID 1101);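 also: HEK293 cells carrying a splicing-competent luciferase reporter gene; test concentration not given here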
- statedConditions: HEK293 splicing luciferase reporter, 24 h, higher = more signal, called active from +8 up or from −8 down
Would you please tag the item Met when its z-score is -0.2 or above, and Not met when it is below?

Would you say C=C(C(=O)CC[C@@H](OC(=O)c1cccnc1)c1ccc(OCCO)cc1)C(C)C shows z-score at minimum -0.2? Not met

Field entry: NC(=O)NCC#Cc1ccc2c(c1)[C@]1(C(=O)N2)[C@H](c2ccccc2OCCO)N2[C@H](c3ccccc3)[C@H](c3ccccc3)OC(=O)[C@H]2[C@@H]1C(=O)N1CCCCCCC1 Not met

Same question, Cc1ccc(N2C(=O)c3ccccc3[C@@H](C(=O)NC(C)C)[C@@H]2c2ccc(CO)cc2)nc1 this time Met

Moving on to O=C(NCC(O)CO)[C@@]1(Cc2ccccc2)COC(c2ccc(OCCCO)cc2)=N1 (stereo partly drawn) Met

Next molecule up: C#C[C@H](O[Si](C#CCCCCCC)(C(C)C)C(C)C)c1ccccc1 Not met

Moving on to O=C1c2ccccc2[C@](Cc2ccccc2I)(C(=O)O)[C@H](c2ccc(CO)cc2)N1Cc1ccccc1C(F)(F)F Met

Lookup CN(C)CCCN1C(=O)[C@@]2(c3ccc([N+](=O)[O-])cc3)CC(=O)N(C3CCCCC3)[C@@H]2c2ccc(CO)cc21 Not met

Here is the next molecule: C=CCN1C(=O)[C@]2(Cc3ccccc31)N=C(c1ccc(OCCCO)cc1)O[C@@H]2c1ccccc1 Met

---

Listed below: composite z-score values for each entry.
- assayedSystem: E3 ubiquitin-protein ligase XIAP (Homo sapiens) (UniProt P98170)
- Sequence (P98170 whole entry, looked up): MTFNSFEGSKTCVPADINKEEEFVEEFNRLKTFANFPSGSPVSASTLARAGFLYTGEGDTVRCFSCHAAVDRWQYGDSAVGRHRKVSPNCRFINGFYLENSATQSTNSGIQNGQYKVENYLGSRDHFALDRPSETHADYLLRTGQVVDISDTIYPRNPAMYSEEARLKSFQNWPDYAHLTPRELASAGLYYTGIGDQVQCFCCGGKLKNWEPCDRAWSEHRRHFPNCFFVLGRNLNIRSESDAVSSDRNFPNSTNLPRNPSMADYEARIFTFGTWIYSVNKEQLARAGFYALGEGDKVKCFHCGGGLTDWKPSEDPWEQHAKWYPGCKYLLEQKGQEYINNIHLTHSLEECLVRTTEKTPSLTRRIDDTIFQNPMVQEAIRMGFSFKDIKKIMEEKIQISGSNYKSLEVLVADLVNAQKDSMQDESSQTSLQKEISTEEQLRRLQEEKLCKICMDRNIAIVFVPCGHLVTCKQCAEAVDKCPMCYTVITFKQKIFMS
- assayDetails: small molecules binding XIAP protein – biophysical, small-molecule microarray, fluorescence 635 nm, primary screen (AID 1181);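 also: score merges 667 nm emission and signal to noise over triplicate slides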
- statedConditions: higher = more signal
The answer should be a number; do not append a unit.

molecule	composite z-score
COCCOC(=O)N1C(=O)[C@@]2(c3ccccc31)[C@H](C(=O)N1CCCCCCC1)[C@H]1C(=O)O[C@H](c3ccccc3)[C@H](c3ccccc3)N1[C@@H]2c1ccccc1OCCO	0.496

Name the reported composite z-score value associated with the molecule Cn1c2c(c3ccccc31)C(=O)C1NC2C=CC1(C)C(=O)OCc1ccccc1 (stereo unspecified) 0.0546

Next molecule up: Cc1ccc(N2C(=O)c3ccccc3[C@](C)(C(=O)NCCN3CCOCC3)[C@@H]2c2ccc(CO)cc2)nc1 0.086

Repeat with CC(C)C[C@@H]1NC(=O)[C@@H]2C[C@H](C(=O)NCCCCN(C)C)[C@H](c3ccc(O)cc3)N2C1=O 0.102

Same question for [N-]=[N+]=NCc1ccccc1[C@@H]1OC(c2ccc(OCCCO)cc2)=N[C@]1(Cc1ccccc1)C(=O)O please. -0.0731

Do the same for COc1ccc([Si](C)(C)[C@H]2[C@H](CC(=O)N3CCC[C@H]3CO)O[C@@]3(C(=O)N(Cc4cccc(N5CCC5=O)c4)c4ccccc43)[C@@H]2C)cc1 please -0.152

Record: CC(C)(C)OC(=O)CC[C@@]1(C(=O)N2CCOCC2)N=C(c2ccc(OCCCO)cc2)O[C@@H]1c1ccccc1N=[N+]=[N-] 0.205

And what about the molecule CCOC(=O)C[C@H]1[C@H](OC(=O)c2ccc(C(=O)c3ccccc3)cc2)[C@@H](NC(=O)c2ccc3ccccc3n2)c2cc(OCCCO)ccc2N1C(=O)c1ccc2ccccc2n1 ? -0.0525

And the next one, CN1C(=O)C2C(C1=O)C1C=C(c3ccc(CO)cc3)C2C(C2CC2)N1Cc1cc2c(cc1Br)OCO2 (stereo unspecified) ? 0.111

Follow-up entry: CCN(CC)c1ccc(N2CC=CC34O[C@@H]5/C=C\CCCOC(=O)C5[C@H]3C(=O)N(CCCO)[C@@H]4C2=O)cc1 (stereo partly specified) 0.559

Input Cc1ccccc1/C=C/C=O -0.141

Another molecule: COC(=O)[C@@]1(Cc2ccc(OC)cc2)[C@H]2c3cc(C(=O)N4CCCC4)n(CCN4CCOCC4)c3C[C@H]2CN1C(=O)c1ccccc1 0.0305
